Tgt: UniProt O15244
Sequence (O15244 1-555): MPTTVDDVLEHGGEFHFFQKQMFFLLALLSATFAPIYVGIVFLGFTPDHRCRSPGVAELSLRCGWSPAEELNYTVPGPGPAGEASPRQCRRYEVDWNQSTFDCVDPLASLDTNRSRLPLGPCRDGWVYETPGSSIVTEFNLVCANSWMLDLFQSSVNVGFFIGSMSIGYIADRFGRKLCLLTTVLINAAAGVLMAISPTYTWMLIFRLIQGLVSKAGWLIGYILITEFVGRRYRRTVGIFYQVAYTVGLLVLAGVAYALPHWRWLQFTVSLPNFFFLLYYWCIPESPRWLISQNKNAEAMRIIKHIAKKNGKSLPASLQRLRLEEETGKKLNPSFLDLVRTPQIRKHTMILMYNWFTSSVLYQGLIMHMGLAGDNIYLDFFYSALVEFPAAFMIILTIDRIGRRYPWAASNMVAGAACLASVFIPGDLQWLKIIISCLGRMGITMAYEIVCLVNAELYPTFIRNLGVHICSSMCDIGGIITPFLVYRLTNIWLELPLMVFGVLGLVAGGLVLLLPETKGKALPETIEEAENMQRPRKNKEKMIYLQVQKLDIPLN
Measurement Protocol: in vitro
Exercise: state measured inhibition at 5 min, 5 μM for each of the molecules provided.
Answers are plain numbers, in %.

Recorded results for 3 molecules are shown here.
Molecule	Readout Unit	inhibition at 5 min, 5 μM
C=C1C[C@@H]2[C@H](CC[C@]3(C)C(=O)CC[C@@H]23)[C@@]2(C)C=CC(=O)C=C12 [Exemestane]	%	66
N=C(N)c1ccc(OCCCCCOc2ccc(C(=N)N)cc2)cc1 [Pentamidine]	%	67
CCNC(=O)[C@@H]1CCCN1C(=O)[C@H](CCCNC(=N)N)NC(=O)[C@H](CC(C)C)NC(=O)[C@@H](CC(C)C)NC(=O)[C@H](Cc1ccc(O)cc1)NC(=O)[C@H](CO)NC(=O)[C@H](Cc1c[nH]c2ccccc12)NC(=O)[C@H](Cc1c[nH]cn1)NC(=O)[C@@H]1CCC(=O)N1 [Leuprolide]	%	58

Task: Entry CC(C)[N+](C)(CCOC(=O)C1c2ccccc2Oc2ccccc21)C(C)C [Propantheline•Br] : reported inhibition at 5 min, 5 μM = ?
Output: 75

----------
Measurement Protocol: Published clinical pharmacokinetic data
Reported Conditions: from published Cmax and protein binding
Plasma peak unbound concentration Cmax,u below 50 nM gives Criterion not met; Plasma peak unbound concentration Cmax,u at or above it gives Criterion met.

Here are 3 compounds together with their reported answers.
>>> df
                                   compound              class
0  C=C1C[C@@H]2[C@H](CC[C@]3(C)C(=O)CC[C@@H]23)[C@@]2(C)C=CC(=O)C=C12 [Exemestane]  Criterion not met
1  NC1=NCC2c3ccccc3Cc3ccccc3N12 (stereo not drawn) [Epinastine]  Criterion not met
2  COc1cc(OC)c(C(=O)CCCN2CCCC2)c(OC)c1 [Buflomedil]      Criterion met

Task: Given C[N+]1(C)[C@@H]2C[C@@H](OC(=O)C(O)(c3cccs3)c3cccs3)C[C@H]1[C@@H]1O[C@@H]12 [Tiotropium•Br] , state whether its Plasma peak unbound concentration Cmax,u is at least 50 nM.
Output: Criterion not met

Task: Next up: C#Cc1cccc(Nc2ncnc3cc(OCCOC)c(OCCOC)cc23)c1 [Erlotinib]
Output: Criterion met
